Please respond with reported inhibition for every item in the list.
target: CDK8/Cyclin C (Homo sapiens) (UniProt P49336+P24863); assay: Inhibition of human CDK8/Cyc C expressed in Sf21 cells at 1 uM measured after 1 hr by fluorescence plate reader relative to control
Answers are plain numbers, in %.

Completed entries (count: 4):
>  <Molecular string>
COCCn1cnc2ccc(-c3ccncc3/C=C/C(=O)Nc3ccc(CN4CCOCC4)cc3)cc21

>  <System name>
CDK8/Cyclin C (Homo sapiens) (UniProt P49336+P24863)

>  <inhibition [%]>
103

$$$$
>  <Molecular string>
Cn1cc(-c2ccncc2/C=C/C(=O)Nc2ccc3ccncc3c2)cn1

>  <System name>
CDK8/Cyclin C (Homo sapiens) (UniProt P49336+P24863)

>  <inhibition [%]>
94

$$$$
>  <Molecular string>
Cn1cc(-c2ccncc2/C=C/C(=O)Nc2ccc(CN3CCOCC3)cc2)cn1

>  <System name>
CDK8/Cyclin C (Homo sapiens) (UniProt P49336+P24863)

>  <inhibition [%]>
100

$$$$
>  <Molecular string>
O=C(/C=C/c1cnccc1-c1ccc2[nH]cnc2c1)Nc1ccc(CN2CCOCC2)cc1

>  <System name>
CDK8/Cyclin C (Homo sapiens) (UniProt P49336+P24863)

>  <inhibition [%]>
99

$$$$

Could you now look at the following compound, please?
Summary for this compound, O=C(/C=C/c1cnccc1-c1cnn2ccccc12)Nc1ccc(CN2CCOCC2)cc1 : inhibition is 98
